Where these numbers come from: ChEMBL document CHEMBL5131397

Assay: Half life in mouse at 1 mg/kg, iv upto 48 hrs by LC/MS/MS analysis
Type: ADME, organism-based
Conditions: in vivo

{"structure_as_smiles": "O=C(Nc1ccn(-c2ccnc(F)c2)n1)C1(c2ccccc2F)CC1", "half-life / h": 2.9}

====

Biological target: Very long chain fatty acid elongase 1 (Homo sapiens, UniProt Q9BW60)
Sequence (Q9BW60 whole entry): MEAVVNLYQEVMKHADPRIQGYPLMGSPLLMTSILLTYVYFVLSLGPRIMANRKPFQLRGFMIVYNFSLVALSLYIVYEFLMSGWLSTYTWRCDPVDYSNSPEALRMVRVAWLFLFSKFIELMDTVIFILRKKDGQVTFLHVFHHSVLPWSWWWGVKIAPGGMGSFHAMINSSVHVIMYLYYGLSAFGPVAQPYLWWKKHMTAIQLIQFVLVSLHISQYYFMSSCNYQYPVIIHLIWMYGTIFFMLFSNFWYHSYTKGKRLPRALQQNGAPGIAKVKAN
Assay: Inhibition of ELOVL1 in Het […] 1 patient-derived human lymphocyte assessed as reduction of C26:0 VLCFA synthesis incubated for 48 hrs by cellular assay
Type: cell-based

{"structure_as_smiles": "O=C(Nc1ccn(-c2ccnc(F)c2)n1)C1(c2ccccc2F)CC1", "IC50, nM": 5}

====

Assay: Lipophilicity, logD of compound at pH 7.4
Format: physicochemical
Conditions: buffer

{"structure_as_smiles": "O=C(Nc1ccn(-c2ccnc(F)c2)n1)C1(c2ccccc2F)CC1", "logD": 3.2}

====

Test: Cytotoxicity against human THLE-2 cells assessed as decrease in intracellular ATP levels incubated for 72 hrs by Cell Titer-Glo luminescence assay
Format: toxicity, cell-based
Details: read-out: TC50
endpoint_label: CC50 at 72 h

{"structure_as_smiles": "O=C(Nc1ccn(-c2ccnc(F)c2)n1)C1(c2ccccc2F)CC1", "recorded_value": "> 100 µM"}

====

Target: Very long chain fatty acid elongase 1 (Homo sapiens, UniProt Q9BW60)
Experiment: Inhibition of ELOVL1 in human HEK2936E cells assessed as reduction of C26:0 LPC synthesis incubated for 48 hrs by cellular assay
Format: cell-based
Examples of molecules with documented IC50 follow.

{"molecule": "Cc1cc(-n2ccc(NC(=O)C3(c4ccccc4F)CC3)n2)ccn1", "limit_sign": "=", "IC50 [nM]": 1600}
{"molecule": "O=C(Nc1ccn(-c2cncc(F)c2)n1)C1(c2c(F)cccc2F)CC1", "limit_sign": "=", "IC50 [nM]": 17}
{"molecule": "COc1ccccc1C1(C(=O)Nc2ccn(-c3cncc(F)c3)n2)CC1", "limit_sign": ">", "IC50 [nM]": 5000}
{"molecule": "O=C(Nc1ccn(-c2ccc(F)nc2)n1)C1(c2ccccc2F)CC1", "limit_sign": "=", "IC50 [nM]": 23}
{"molecule": "C[C@H](C(=O)Nc1ccn(-c2ccccc2)n1)c1ccccc1", "limit_sign": "=", "IC50 [nM]": 38}
{"molecule": "O=C(Nc1ccn(-c2cncc(F)c2)n1)C1(c2ccc(F)cc2)CC1", "limit_sign": "=", "IC50 [nM]": 100}
{"molecule": "COc1cc(-n2ccc(NC(=O)C3(c4ccccc4F)CC3)n2)ccn1", "limit_sign": "=", "IC50 [nM]": 50}
{"molecule": "O=C(Nc1ccn(-c2ccccc2)n1)C1(c2ccccc2)CC1(F)F (stereo unspecified)", "limit_sign": "=", "IC50 [nM]": 140}
{"molecule": "O=C(Nc1ccn(-c2cncc(F)c2)n1)C1(c2ccccc2Cl)CC1", "limit_sign": "=", "IC50 [nM]": 110}
{"molecule": "O=C(Nc1ccn(-c2cncc(F)c2)n1)C1(c2ccc(Cl)cc2)CC1", "limit_sign": "=", "IC50 [nM]": 340}
{"molecule": "COc1ccc(C2(C(=O)Nc3ccn(-c4cncc(F)c4)n3)CC2)cc1", "limit_sign": "=", "IC50 [nM]": 640}

====

Test: Half life in Sprague-Dawley rat at 1 mg/kg, iv upto 48 hrs by LC/MS/MS analysis
Assay type: ADME, organism-based
Settings: in vivo

{"structure_as_smiles": "O=C(Nc1ccn(-c2ccnc(F)c2)n1)C1(c2ccccc2F)CC1", "half-life / h": 3.5}
